Reported EC50 values follow for various compounds
targetSystem: CFTR-mediated chloride transport (Homo sapiens, UniProt P13569)
testSummary: Corrector Assay A - membrane potential dye assay (enteroid cells)
testConditions: read-out: Corrector Assay A EC50; human intestinal enteroid cells, 18-24 h incubation; acute 10 μM forskolin + 300 nM ivacaftor

// known answers, use as guide
Value of EC50 reported for the compound CC1(COc2ccn(-c3ccc4c(n3)N3C[C@@H](CC[C@H](c5ccccn5)Nc5cccc(n5)S(=O)(=O)NC4=O)CC3(C)C)n2)CC1 [Compound 321] is < 1000 nM

The compound identified as CC(C)(C)c1ccc2c(n1)N1C[C@@H](CCC(c3ccc(CCC(=O)O)cn3)Nc3cccc(n3)S(=O)(=O)NC2=O)CC1(C)C (some centres unmarked) [Compound 97] registered its EC50 at 1000 to 3000 nM

Recorded result, CC(C)(C)c1ccc2c(n1)N1C[C@@H](CCC(CC(O)CO)Nc3cccc(n3)S(=O)(=O)NC2=O)CC1(C)C (single isomer, unassigned) [Compound 31] , EC50: < 1000 nM

Lab note: measured EC50 of CC(C)(C)c1ccnc(C2CC[C@@H]3CN(c4nc(C(C)(C)C)ncc4C(=O)NS(=O)(=O)c4cccc(n4)N2)C(C)(C)C3)c1 (single isomer, unassigned) [Compound 2] was < 1000 nM

Now for the compound whose EC50 we want.
Value of measured EC50 for the entry CN(C)Cc1ccnc([C@@H]2CC[C@@H]3CN(c4nc(C(C)(C)C)ccc4C(=O)NS(=O)(=O)c4cccc(n4)N2)C(C)(C)C3)c1 (single isomer, unassigned) [Compound 87] : < 1000 nM

###

targetSystem: CFTR-mediated chloride transport (Homo sapiens)
testSummary: Corrector Assay A - membrane potential dye assay (enteroid cells)
testConditions: read-out: Corrector Assay A EC50; human intestinal enteroid cells, 18-24 h incubation; acute 10 μM forskolin + 300 nM ivacaftor
attributeMeasured: EC50

The cases that follow already have their EC50 on record.
The recorded EC50 for CC(C)(C)c1ccc2c(n1)N1C[C@@H](CCC(c3ccc(C#N)cn3)Nc3cccc(n3)S(=O)(=O)NC2=O)CC1(C)C (single isomer, unassigned) [Compound 205] is < 1000 nM

The recorded EC50 for CC(C)(C)c1ccc2c(n1)N1C[C@@H](CC[C@H](c3cc(C(F)(F)F)ccn3)Nc3cccc(n3)S(=O)(=O)NC2=O)CC1(C)C (single isomer, unassigned) is < 1000 nM

# EC50 (compound: CC(C)(C)c1ccc2c(n1)N1C[C@@H](CCC(c3ncccc3Cl)Nc3cccc(n3)S(=O)(=O)NC2=O)CC1(C)C (single isomer, unassigned) [Compound 65] ) is < 1000 nM

// sample CC(C)(C)c1ccc2c(n1)N1C[C@@H](CCC(c3ccc(C4CC(F)(F)C4)cn3)Nc3cccc(n3)S(=O)(=O)NC2=O)CC1(C)C (stereo partly drawn) , its EC50 was < 1000 nM

Item: CC(C)(C)c1ccc2c(n1)N1C[C@@H](CCC(c3ccc(C4CNC4)cn3)Nc3cccc(n3)S(=O)(=O)NC2=O)CC1(C)C (stereo partly drawn) [Compound 165] | EC50: < 1000 nM

***
Short answer for Cc1ccc2cc3c(nc2c1)N1C[C@@H](CC[C@@H](c2cc(C(C)(C)C)ccn2)Nc2cccc(n2)S(=O)(=O)NC3=O)CC1(C)C (single isomer, unassigned) [Compound 8] : EC50 was < 1000 nM

###

Here, each record is paired with measured EC50 data.
targetSystem: CFTR-mediated chloride transport (Homo sapiens, UniProt P13569)
testSummary: Corrector Assay A - membrane potential dye assay (enteroid cells)
testConditions: read-out: Corrector Assay A EC50; human intestinal enteroid cells, 18-24 h incubation; acute 10 μM forskolin + 300 nM ivacaftor

Record excerpt, results attached:
Short answer for CC(C)(C)c1ccc2c(n1)N1C[C@@H](CCC3CCCC(=O)N3c3cccc(n3)S(=O)(=O)NC2=O)CC1(C)C (stereo partly drawn) [Compound 14] : EC50 was < 1000 nM

Item: CC(C)=Cc1ccc(C2CC[C@@H]3CN(c4nc(C(C)(C)C)ccc4C(=O)NS(=O)(=O)c4cccc(n4)N2)C(C)(C)C3)nc1 (stereo partly drawn) [Compound 182] | EC50: < 1000 nM

New cases:
The reported value for CC(C)(C)c1ccc2c(n1)N1C[C@@H](CCC(c3cc(Cl)ccn3)Nc3cccc(n3)S(=O)(=O)NC2=O)CC1(C)C (single isomer, unassigned) [Compound 128] in terms of EC50 is < 1000 nM

###

targetSystem: UniProt:P13569
testSummary: Corrector Assay A - membrane potential dye assay (enteroid cells)
testConditions: % of chloride transport of triple combination control (1 μM (14S)-dispiro macrocycle + 3 μM tezacaftor + 300 nM ivacaftor)
attributeMeasured: Corrector Assay A % activity

Previously resolved entries follow.
Please fill in: Corrector Assay A % activity reported for "CC(C)(C)c1ccc2c(n1)N1C[C@@H](CC[C@@H](c3cccc(CCCN)n3)Nc3cccc(n3)S(=O)(=O)NC2=O)CC1(C)C" = + (+ is <30%)

The value of Corrector Assay A % activity measured for the compound COC(=O)CCc1ccc(C2CC[C@@H]3CN(c4nc(C(C)(C)C)ccc4C(=O)NS(=O)(=O)c4cccc(n4)N2)C(C)(C)C3)nc1 (stereo partly drawn) [Compound 91] turned out to be ++ (++ is 30-60%)

The compound identified as CC(C)(C)c1ccc2c(n1)N1C[C@@H](CCC(c3ccc(N4CCCCC4)cn3)Nc3cccc(n3)S(=O)(=O)NC2=O)CC1(C)C (stereo partly drawn) [Compound 185] registered its Corrector Assay A % activity at ++ (++ is 30-60%)

// CC(C)(C)c1ccc2c(n1)N1C[C@@H](CCC(c3cc(C#N)ccn3)Nc3cccc(n3)S(=O)(=O)NC2=O)CC1(C)C (single isomer, unassigned) [Compound 143] : Corrector Assay A % activity value = ++ (++ is 30-60%)

Looking up CC(C)(C)c1ccc2c(n1)N1C[C@@H](CCC(c3ccc(C4=CCOCC4)cn3)Nc3cccc(n3)S(=O)(=O)NC2=O)CC1(C)C (stereo partly drawn) [Compound 167] , I found its Corrector Assay A % activity recorded as ++ (++ is 30-60%)

Further cases:
Corrector Assay A % activity recorded for this compound, "CC(C)(C)CCOc1ccn(-c2ccc3c(n2)N2C[C@@H](CC[C@H](c4ccccn4)Nc4cccc(n4)S(=O)(=O)NC3=O)CC2(C)C)n1" , is +++ (+++ is >60%)

// Corrector Assay A % activity lookup, compound = COC(=O)NCc1ccc(C2CC[C@@H]3CN(c4nc(C(C)(C)C)ccc4C(=O)NS(=O)(=O)c4cccc(n4)N2)C(C)(C)C3)nc1 (stereo partly drawn) [Compound 88] , result: +++ (+++ is >60%)

compound CC(C)(C)c1ccc2c(n1)N1C[C@@H](CCC(c3ccc(N4CCCCC4)cn3)Nc3cccc(n3)S(=O)(=O)NC2=O)CC1(C)C (stereo partly drawn) [Compound 184] , Corrector Assay A % activity observed: +++ (+++ is >60%)

###

targetSystem: CFTR-mediated chloride transport (Homo sapiens)
testSummary: Corrector Assay B - membrane potential dye assay (enteroid cells);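 also: methyl oxonol membrane potential fluorescence followed over 15 min after switching to chloride-free buffer with forskolin, 100 µM IBMX and ivacaftor, in presence of CaCC blockers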
testConditions: read-out: Corrector Assay B EC50; human intestinal enteroid cells, 18-24 h incubation; acute 10 μM forskolin + 300 nM ivacaftor
The compounds listed here are annotated with their EC50.

The recorded EC50 for "CC1(C)C[C@@H]2CCCn3nnnc3CNc3cccc(n3)S(=O)(=O)NC(=O)c3ccc(-n4ccc(OCCC5(C(F)(F)F)CC5)n4)nc3N1C2" is < 1000 nM

Field EC50 (entry CC1(C)C[C@@H]2CCCN(C[C@@H](O)CO)c3cccc(n3)S(=O)(=O)NC(=O)c3ccc(-n4ccc(OCCC5(C(F)(F)F)CC5)n4)nc3N1C2 (single isomer, unassigned) ) reads < 1000 nM

###

targetSystem: CFTR-mediated chloride transport (Homo sapiens, UniProt P13569)
testSummary: Corrector Assay A - membrane potential dye assay (enteroid cells)
testConditions: % of chloride transport of triple combination control (1 μM (14S)-dispiro macrocycle + 3 μM tezacaftor + 300 nM ivacaftor)
attributeMeasured: Corrector Assay A % activity

Field: example entries. Status: answers known.
Item: CC(C)(C)c1ccc2c(n1)N1C[C@@H](CCC(C(C)(C)O)Nc3cccc(n3)S(=O)(=O)NC2=O)CC1(C)C (stereo partly drawn) [Compound 12] | Corrector Assay A % activity: +++ (+++ is >60%)

Data point: Cc1cccc2cc3c(nc12)N1C[C@@H](CCC(c2cc(C(C)(C)C)ccn2)Nc2cccc(n2)S(=O)(=O)NC3=O)CC1(C)C (single isomer, unassigned) [Compound 4] ; Corrector Assay A % activity = ++ (++ is 30-60%)

The measured Corrector Assay A % activity associated with CC(C)(C)c1ccc2c(n1)N1C[C@@H](CCC(c3cc(C#N)ccn3)Nc3cccc(n3)S(=O)(=O)NC2=O)CC1(C)C (single isomer, unassigned) [Compound 144] reads +++ (+++ is >60%)

Looking up CC1(C)CC2CC(c3ccccc3)CNc3cccc(n3)S(=O)(=O)NC(=O)c3ccc(-n4ccc(OCCC5(C(F)(F)F)CC5)n4)nc3N1C2 (single isomer, unassigned) [Compound 389] , I found its Corrector Assay A % activity recorded as +++ (+++ is >60%)

Now examine the next entry.
Recorded Corrector Assay A % activity (molecule CC1(C)CC2CN1c1nc(-n3ccc(OCCC4(C(F)(F)F)CC4)n3)ccc1C(=O)NS(=O)(=O)c1cccc(n1)NCCC2c1ccccc1 (single isomer, unassigned) [Compound 385] ): ++ (++ is 30-60%)
